- TARGET DESC: Histone deacetylase
- PROTOCOL: Inhibition of HDAC in human HeLa cells assessed as deacetylation of substrate by fluorescence plate reader analysis
- Type: cell-based
Overview of recorded IC50 for various compounds
MEASUREMENT KIND: IC50 (µM)

CHEMICAL STRING	TARGET DESC	MEASUREMENT KIND	UNIT STRING	MEASURED NUMBER
O=C(NO)c1csc2ccccc12	Histone deacetylase	IC50	µM	76.13
O=C(NO)c1cc2cccc(Cl)c2s1	Histone deacetylase	IC50	µM	2.91
O=C(NO)c1cc2sccc2s1	Histone deacetylase	IC50	µM	0.557
Cc1ccc2cc(C(=O)NO)sc2c1	Histone deacetylase	IC50	µM	1.76

---

Overview of recorded inhibition for various compounds
- TARGET DESC: Histone deacetylase (Homo sapiens) (UniProt Q13547+O15379+Q9UBN7+Q92769+Q9UQL6+Q8WUI4+Q9BY41+Q96DB2+P56524+Q9UKV0+Q969S8)
- PROTOCOL: Inhibition of HDAC (unknown origin) at 0.1 uM
- Assay type: protein assay
MEASUREMENT KIND: inhibition (%)

CHEMICAL STRING	UNIT STRING	READOUT QUALIFIER	MEASURED NUMBER
O=C(Cc1ccccn1)Nc1ccc2sc(C(=O)NO)cc2c1	%	=	39
N[C@@H](CCc1ccccc1)C(=O)Nc1ccc2cc(C(=O)NO)sc2c1	%	=	71
O=C(CCc1ccccc1)Nc1ccc2cc(C(=O)NO)sc2c1	%	=	42
O=C(NO)c1cc2cc(NCc3ccccc3)ccc2s1	%	=	28
N[C@H](Cc1ccccc1)C(=O)Nc1ccc2cc(C(=O)NO)sc2c1	%	=	41
N[C@@H](C(=O)Nc1ccc2cc(C(=O)NO)sc2c1)c1ccccc1	%	=	70
O=C(NO)c1cc2ccc(CN(CCO)c3ccccc3)cc2s1	%	=	53
O=C(Cc1ccccc1)Nc1ccc2cc(C(=O)NO)sc2c1	%	=	71
O=C(Cc1ccncc1)Nc1ccc2sc(C(=O)NO)cc2c1	%	=	49
O=C(NO)c1cc2ccc(CSc3ccc(F)cc3)cc2s1	%	<	20
N#Cc1cc2ccc(NC(=O)[C@H](N)c3ccccc3)cc2s1	%	<	20
O=C(NO)c1cc2ccc(COc3ccc(F)cc3)cc2s1	%	<	20

Data provenance: ChEMBL document CHEMBL2401613
